Origin of the recorded values: patent US10385069B2

Exercise: state measured IC50 for each of the compounds provided.
Biological target: interaction between biotinylated human S100A9 and human RAGE-Fc (Homo sapiens, UniProt P06702)
Sequence (P06702 1-114): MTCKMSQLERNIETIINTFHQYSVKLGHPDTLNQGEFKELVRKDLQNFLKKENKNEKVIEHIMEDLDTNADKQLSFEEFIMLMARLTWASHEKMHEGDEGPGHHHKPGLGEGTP
Assay: AlphaScreen inhibition assay, biot-hS100A9:hRAGE-Fc
Conditions: biot-hS100A9 pre-incubated with compound 1 h, assay buffer with CaCl2 and ZnCl2
Numbers only, in nM.

Look up IC50 for the entries below, preserving their order.
1. CC1(C)Cc2c(sc3nc(CC(=O)O)cn23)C(C)(C)C1
2. COc1ccccc1-c1c(C(=O)O)nc2sc3c(n12)CC(C)(C)CC3(C)C
3. CCN(CC)CCCS(=O)(=O)NC(=O)c1cn2c3c(sc2n1)C(C)(C)CC(C)(C)C3

result:
4940
1530
1360
